Consider the following pKi data for UniProt:P00915, collected from several reports.
pKi: −log10 of the molar value.
Measured Parameter: pKi

{"columns": ["Compound", "Measured Parameter", "Qualifier Symbol", "Reported"],
 "data": [
  ["CCCC(CCC)C(=O)Nc1c(S(N)(=O)=O)cc(S(N)(=O)=O)c(Cl)c1Cl", "pKi", "=", 6.01],
  ["CCCC(CCC)C(=O)Nc1cccc(S(N)(=O)=O)c1", "pKi", "=", 4.72],
  ["Cc1cn([C@H]2C[C@@H](n3cc(COc4ccc5oc(=O)ccc5c4)nn3)[C@@H](CO)O2)c(=O)[nH]c1=O", "pKi", "<", 5.00],
  ["CC(C)CN(CC(C)C)S(N)(=O)=O", "pKi", "<", 4.00],
  ["NS(=O)(=O)c1ccc(-c2ccc(C(O)c3ccccc3)cc2)cc1 (centres undefined)", "pKi", "=", 7.28],
  ["CCOC(=O)c1cc(S(N)(=O)=O)c(S)cc1Cl", "pKi", "=", 5.19],
  ["NCC(=O)NCC(=O)NCCc1ccc(S(N)(=O)=O)cc1", "pKi", "=", 6.10],
  ["COc1ccc(CNc2ccc(S(N)(=O)=O)cc2)cc1", "pKi", "<", 4.30],
  ["NS(=O)(=O)c1ccccc1NC(=O)CNCCNCC(=O)O", "pKi", "=", 4.69],
  ["NS(=O)(=O)c1ccc(-c2cc3ccccc3[nH]2)cc1", "pKi", "=", 6.18],
  ["NS(=O)(=O)c1ccc(NC(=O)CNCCNCC(=O)O)c(F)c1", "pKi", "=", 6.11],
  ["CCN(C(=O)CNC(=O)CN)C1CC(C)S(=O)(=O)c2sc(S(N)(=O)=O)cc21 (centres undefined)", "pKi", "=", 7.05],
  ["COc1ccc(S(=O)(=O)N(CC(=O)NO)Cc2ccccc2[N+](=O)[O-])cc1", "pKi", "<", 6.70],
  ["CC(C)CC(C(=O)NO)N(Cc1ccccc1)S(=O)(=O)c1c(F)c(F)c(F)c(F)c1F (centres undefined)", "pKi", "=", 7.00],
  ["CC(=O)OC[C@H]1O[C@@H](O[C@H]2[C@H](OC(C)=O)[C@@H](OC(C)=O)[C@H](NC(=S)Nc3ccc(S(N)(=O)=O)cc3)O[C@@H]2COC(C)=O)[C@H](OC(C)=O)[C@@H](OC(C)=O)[C@H]1OC(C)=O", "pKi", "=", 7.00],
  ["O=Cc1cccc(OCc2cn(CCCOc3ccc4ccc(=O)oc4c3)nn2)c1", "pKi", "<", 5.00],
  ["C[C@H](CCC(=O)Nc1ccc(S(N)(=O)=O)cc1Br)[C@H]1CC[C@H]2[C@@H]3CC[C@@H]4C[C@H](O)CC[C@]4(C)[C@H]3CC[C@]12C", "pKi", "=", 6.92],
  ["CCCC(CCC)C(=O)Nc1ccccc1S(N)(=O)=O", "pKi", "=", 4.64],
  ["CC(=O)N1N=C(c2cccc(OS(N)(=O)=O)c2)CC1c1c(Cl)cccc1Cl (centres undefined)", "pKi", "=", 5.75],
  ["NS(=O)(=O)c1ccc(OCCCO[N+](=O)[O-])cc1", "pKi", "=", 6.23],
  ["NS(=O)(=O)c1cc(S(N)(=O)=O)c(NCc2cc(=O)oc3cc(Cl)ccc23)c(Cl)c1Cl", "pKi", "=", 6.30],
  ["CC(C)c1cc(-c2ccccc2)cc(C(C)C)[n+]1CC(=O)Nc1cc(Cl)c(S(N)(=O)=O)cc1S(N)(=O)=O", "pKi", "=", 6.46],
  ["COC(=O)C(CC(C)C)NC(=O)Nc1ccc(S(N)(=O)=O)cc1 (centres undefined)", "pKi", "=", 6.65],
  ["NS(=O)(=O)c1ccc(CCNCc2ccc([N+](=O)[O-])cc2)cc1", "pKi", "=", 6.65],
  ["NS(=O)(=O)c1ccc(CCNC(=O)CN(CC(=O)O)S(=O)(=O)c2ccc(Oc3ccccc3)cc2)cc1", "pKi", "=", 5.46],
  ["CC(C)c1cc(-c2ccccc2)cc(C(C)C)[n+]1CC(=O)Nc1cccc(S(N)(=O)=O)c1", "pKi", "=", 4.64],
  ["NS(=O)(=O)c1ccc(/N=c2\\scc(-c3ccc(Br)cc3)n2C2CCCCC2)cc1", "pKi", "<", 5.00],
  ["NS(=O)(=O)c1nnc(NC(=O)CCNC(=O)CN(CCN(CCN(CC(=O)O)CC(=O)O)CC(=O)O)CC(=O)O)s1", "pKi", "=", 6.96],
  ["CN(C)C(=O)Nc1ccc(S(N)(=O)=O)cc1", "pKi", "=", 6.32],
  ["CC(=O)OC[C@H]1O[C@@H](NC(=S)NCc2ccc(S(N)(=O)=O)cc2)[C@H](OC(C)=O)[C@@H](OC(C)=O)[C@@H]1OC(C)=O", "pKi", "=", 7.00],
  ["COc1ccc(C(=O)O)cc1", "pKi", "=", 5.04],
  ["NS(=O)(=O)c1ccc(CNC(=O)Nc2ccccc2)cc1", "pKi", "=", 6.10],
  ["CC(=O)/C(=N\\Nc1cccc(-n2nc(C(=O)Nc3nnc(S(N)(=O)=O)s3)c(C(=O)Nc3nnc(S(N)(=O)=O)s3)c2-c2ccccc2)c1)C(=O)c1ccccc1", "pKi", "=", 6.92],
  ["O=S(=O)(NC1CCCCC1)NC1CCCCC1", "pKi", "=", 5.18],
  ["CC1=NN(c2ccc(Cl)cc2Cl)C(=O)/C1=N/Nc1cccc(S(N)(=O)=O)c1", "pKi", "=", 4.27],
  ["CC(C)c1cc(-c2ccccc2)cc(C(C)C)[n+]1CC(=O)NCc1ccc(S(N)(=O)=O)cc1", "pKi", "=", 5.84],
  ["CCCN(CCC)S(=O)(=O)c1ccc(C(=O)NCC)cc1", "pKi", "<", 5.00],
  ["CC(=O)Nc1ccc(S(=O)(=O)NO)cc1", "pKi", "=", 4.40],
  ["CCCC(CCC)C(=O)Nc1ccc(S(N)(=O)=O)cc1F", "pKi", "=", 6.00]
]}

---

Consider the following Ki data for Carbonic anhydrase 1 (Homo sapiens), collected from several reports.
So basically: is Ki under 300 nM? Then condition met. Not under? Then condition not met.

{"columns": ["Compound", "Class Label"],
 "data": [
  ["CN1C(=O)NS(=O)(=O)c2cc(Cl)ccc21", "condition not met"],
  ["NS(=O)(=O)c1ccc2[nH]c(-c3cscn3)nc2c1", "condition met"],
  ["COc1cc(/C=C/C(=O)OCCCCO[N+](=O)[O-])ccc1OC(=O)c1ccc(S(N)(=O)=O)cc1", "condition met"],
  ["NS(=O)(=O)c1ccc(CCN(Cc2ccc3ccccc3c2)C(=O)CN(CCC(=O)O)CCc2ccccc2)cc1", "condition met"],
  ["CC(C)(C)n1c(=O)cc(-c2cccs2)[s+]1[O-] (configuration not stated)", "condition not met"],
  ["NS(=O)(=O)OC(C(F)(F)F)C(F)(F)F", "condition not met"],
  ["O=C1Nc2ccc(Br)cc2S(=O)(=O)N1", "condition not met"],
  ["NS(=O)(=O)c1ccc(N2C(=O)c3c(Br)c(Br)c(Br)c(Br)c3C2=O)c(F)c1", "condition not met"],
  ["Cc1cc(S(N)(=O)=O)c(S(=O)(=O)CC(=O)O)cc1Cl", "condition not met"],
  ["CC(=O)N1N=C(c2ccc(OS(N)(=O)=O)cc2)CC1c1ccc(Cl)cc1 (configuration not stated)", "condition not met"],
  ["C[C@H](CCC(=O)Nc1ccc(S(N)(=O)=O)cc1F)[C@H]1CC[C@H]2[C@@H]3CC[C@@H]4C[C@H](O)CC[C@]4(C)[C@H]3CC[C@]12C", "condition not met"],
  ["NS(=O)(=O)c1ccc(NC(=O)CN(CC(=O)O)CC(=O)O)c(Br)c1", "condition not met"],
  ["COC(=O)C1=Cc2cc(C)ccc2OC(=O)C1", "condition not met"],
  ["Cc1c2c(=O)oc3ccc(Br)cc3c2nn1-c1ccccc1", "condition not met"],
  ["Cc1cc(C)[n+](CC(=O)Nc2ccc(S(N)(=O)=O)cc2Cl)c(C)c1", "condition not met"],
  ["CC1(C)OB(c2ccc(OS(N)(=O)=O)cc2)OC1(C)C", "condition met"],
  ["Cc1ccc(N2CCN(C(=S)SCC(=O)Nc3ccc(S(N)(=O)=O)cc3)CC2)cc1", "condition not met"],
  ["COc1c(Br)c(Br)c(CO)c(Br)c1OC", "condition not met"],
  ["NS(=O)(=O)c1ccc(C(=O)NNC(=S)N[C@@H]2O[C@H](CO)[C@@H](O)[C@H](O)[C@H]2O)cc1", "condition not met"],
  ["COc1ccccc1NC(=O)Nc1ccc(S(N)(=O)=O)cc1", "condition met"],
  ["Cn1nc(S(N)(=O)=O)s/c1=N/C(=O)c1c(F)c(F)cc(F)c1F", "condition met"]
]}
